details: in methanol, 278.15 K

{"sampleSmiles": "Nc1cc([N+](=O)[O-])ccc1Cl", "solubility (mole fraction)": 0.0085}

---

conditions: in toluene, 298.15 K

{"sampleSmiles": "Nc1cc([N+](=O)[O-])ccc1Cl", "solubility (mole fraction)": 0.0231}

---

conditions: in isopropanol, 298.15 K

{"sampleSmiles": "Nc1cc([N+](=O)[O-])ccc1Cl", "solubility (mole fraction)": 0.0132}

---

conditions: in ethanol, 288.15 K

{"sampleSmiles": "Nc1cc([N+](=O)[O-])ccc1Cl", "solubility (mole fraction)": 0.0149}

---

conditions: in n-propanol, 283.15 K
endpoint: solubility (mole fraction)

{"sampleSmiles": "Nc1cc([N+](=O)[O-])ccc1Cl", "endpoint": "solubility (mole fraction)", "result": 0.011}

---

details: in NMP, 278.15 K

{"sampleSmiles": "Nc1cc([N+](=O)[O-])ccc1Cl", "solubility (mole fraction)": 0.161}

---

details: in toluene, 273.15 K

{"sampleSmiles": "Nc1cc([N+](=O)[O-])ccc1Cl", "solubility (mole fraction)": 0.0118}

---

conditions: in 2-butanone, 298.15 K

{"sampleSmiles": "Nc1cc([N+](=O)[O-])ccc1Cl", "solubility (mole fraction)": 0.141}

---

details: in isopropanol, 288.15 K

{"sampleSmiles": "Nc1cc([N+](=O)[O-])ccc1Cl", "solubility (mole fraction)": 0.0091}

---

details: in toluene, 313.15 K

{"sampleSmiles": "Nc1cc([N+](=O)[O-])ccc1Cl", "solubility (mole fraction)": 0.0352}

---

conditions: in acetone, 313.15 K

{"sampleSmiles": "Nc1cc([N+](=O)[O-])ccc1Cl", "solubility (mole fraction)": 0.197}

---

settings: in ethanol, 273.15 K

{"sampleSmiles": "Nc1cc([N+](=O)[O-])ccc1Cl", "solubility (mole fraction)": 0.0097}

---

conditions: in acetonitrile, 303.15 K

{"sampleSmiles": "Nc1cc([N+](=O)[O-])ccc1Cl", "solubility (mole fraction)": 0.0671}

---

conditions: in ethyl acetate, 288.15 K

{"sampleSmiles": "Nc1cc([N+](=O)[O-])ccc1Cl", "solubility (mole fraction)": 0.0991}

---

conditions: in toluene, 303.15 K

{"sampleSmiles": "Nc1cc([N+](=O)[O-])ccc1Cl", "solubility (mole fraction)": 0.0268}

---

settings: in 2-butanone, 303.15 K

{"sampleSmiles": "Nc1cc([N+](=O)[O-])ccc1Cl", "solubility (mole fraction)": 0.153}

---

conditions: in acetone, 308.15 K

{"sampleSmiles": "Nc1cc([N+](=O)[O-])ccc1Cl", "solubility (mole fraction)": 0.182}

---

conditions: in acetonitrile, 298.15 K

{"sampleSmiles": "Nc1cc([N+](=O)[O-])ccc1Cl", "solubility (mole fraction)": 0.0579}

---

conditions: in NMP, 293.15 K

{"sampleSmiles": "Nc1cc([N+](=O)[O-])ccc1Cl", "solubility (mole fraction)": 0.179}

---

conditions: in acetonitrile, 288.15 K
endpoint: solubility (mole fraction)

{"sampleSmiles": "Nc1cc([N+](=O)[O-])ccc1Cl", "numericReadout": 0.0413}

---

conditions: in n-propanol, 313.15 K

{"sampleSmiles": "Nc1cc([N+](=O)[O-])ccc1Cl", "solubility (mole fraction)": 0.0283}
